Values were extracted from patent US7855292B2.

Target: CCK-1 receptor (Homo sapiens)
Construct: expressed in transfected cells; host or cells: CHO-K1
Sequence (P32238 whole entry): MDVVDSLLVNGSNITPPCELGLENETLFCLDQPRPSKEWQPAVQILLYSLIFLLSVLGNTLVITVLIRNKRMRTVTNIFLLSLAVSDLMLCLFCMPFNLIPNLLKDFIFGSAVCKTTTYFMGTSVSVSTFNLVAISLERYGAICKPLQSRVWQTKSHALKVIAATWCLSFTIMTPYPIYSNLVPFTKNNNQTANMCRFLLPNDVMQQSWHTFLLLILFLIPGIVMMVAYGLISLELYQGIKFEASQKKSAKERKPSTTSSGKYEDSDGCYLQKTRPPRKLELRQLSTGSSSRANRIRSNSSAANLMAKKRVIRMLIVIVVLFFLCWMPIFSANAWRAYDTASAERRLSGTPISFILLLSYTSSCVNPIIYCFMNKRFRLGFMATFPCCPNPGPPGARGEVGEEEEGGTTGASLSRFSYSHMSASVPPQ
Assay: CCK1 binding assay ([125I]-BH-CCK-8S displacement, CHO-K1 membranes)
Details: membranes of CHO-K1 cells stably transfected with the CCK-1 receptor; 20 pM [125I]-BH-CCK-8S; 0.3 μM PD-134,308 present; 60 min at 21±3° C.; read-out: CCK1 pKi (converted)
Task for the reader: assign each of the following compounds its reported Ki.
Write down the value, and be sure its unit follows.

Some compounds with recorded Ki:
Req: Look up Ki with CCK-1 receptor (Homo sapiens) for this compound: O=C(NC(CO)Cc1ccc(Cl)cc1)c1ccc(Cl)cc1NS(=O)(=O)c1cccc2nsnc12 (racemic)
Resp: 0.501 µM

Req: Continue with O=C(N[C@@H](Cc1ccc(Cl)cc1Cl)C(=O)O)c1ccc(Br)cc1NS(=O)(=O)c1c(F)cccc1F
Resp: 0.631 µM

Req: What do you get for CC(CNC(=O)c1ccc(Br)cc1NS(=O)(=O)c1c(F)cccc1F)c1ccc(Cl)c(Cl)c1 (centres unmarked) ?
Resp: 0.0631 µM

Req: What about O=C(N[C@@H](Cc1ccc(Cl)c(Cl)c1)C(=O)O)c1ccc(Cl)cc1NS(=O)(=O)c1c(F)cccc1F ?
Resp: 0.501 µM

Req: And then CC(CNC(=O)c1ccc(Cl)cc1NS(=O)(=O)c1cccc2nccnc12)c1ccc(Cl)c(Cl)c1 (racemic) , what is it?
Resp: 0.0794 µM

Req: Same read-out for O=C(N[C@@H](Cc1ccccc1)C(=O)O)c1ccc(C(F)(F)F)cc1NS(=O)(=O)c1cccc2nsnc12 ?
Resp: 2.51 µM

Req: Next: C[C@@H](NC(=O)c1ccc(Cl)cc1NS(=O)(=O)c1cccc2nsnc12)[C@@H](O)c1ccccc1
Resp: 0.2 µM

Req: Would you mind doing COC(=O)[C@H](Cc1ccc(F)c(Br)c1)NC(=O)c1ccc(I)cc1NS(=O)(=O)c1cccc2nccnc12 as well?
Resp: 0.316 µM

Req: // repeat for NC(=O)[C@H](Cc1ccc(Cl)cc1)NC(=O)c1cc(Cl)c(Cl)cc1NS(=O)(=O)c1cccc2nsnc12 and report
Resp: 0.398 µM

Req: Now consider O=C(N[C@@H](Cc1ccc(Cl)c(Cl)c1)C(=O)NCc1ccc(F)cc1)c1ccc(Cl)cc1NS(=O)(=O)c1cccc2nsnc12 and answer again.
Resp: 0.398 µM

Hi! Can you tell me Ki for each of these compounds?
1. CC(Cc1ccc(Cl)cc1)NC(=O)c1ccc(C(F)(F)F)cc1NS(=O)(=O)c1cccc2nsnc12 (centres unmarked)
2. COC(=O)[C@H](Cc1ccc(F)c(Br)c1)NC(=O)c1ccc(Cl)cc1NS(=O)(=O)c1cccc2nsnc12

Resp:
0.501 µM
0.2 µM

Please state Ki for every compound in the list that follows.
1. CC(CNC(=O)c1ccc(I)cc1NS(=O)(=O)c1cccc2nsnc12)c1ccc(Cl)c(Cl)c1 (centres unmarked)
2. CC(CNC(=O)c1c(Cl)cccc1NS(=O)(=O)c1cccc2nsnc12)c1ccc(Cl)c(Cl)c1 (centres unmarked)

Resp:
1: 0.0251 µM; 2: 0.794 µM

###

Target: CCK-1 receptor (Homo sapiens)
Construct: expressed in transfected cells; host or cells: CHO-K1
Assay: CCK1 binding assay ([125I]-BH-CCK-8S displacement, CHO-K1 membranes)
Conditions: membranes of CHO-K1 cells stably transfected with the CCK-1 receptor; 20 pM [125I]-BH-CCK-8S; 0.3 μM PD-134,308 present; 60 min at 21±3° C.; read-out: CCK1 pKi (converted)
Please respond with reported Ki for every item in the list.
One number for each entry, in nM.

Example compounds with recorded Ki:
Req: # query: Ki of entry O=C(N[C@H](Cc1ccc(Cl)cc1Cl)C(=O)O)c1ccc(Cl)cc1NS(=O)(=O)c1c(F)cccc1F
Resp: 1580

Req: Again, but for O=C(N[C@@H](Cc1cccc(Cl)c1)C(=O)O)c1ccc(Cl)cc1NS(=O)(=O)c1cccc2nccnc12
Resp: 3980

Req: Could you do the same for C[C@@H](CNC(=O)c1ccc(Br)cc1NS(=O)(=O)c1c(F)cccc1F)c1ccccc1 , please?
Resp: 316

Hey, quick one: what's Ki for each of these?
1. O=C(N[C@@H](Cc1ccc(Cl)c(Cl)c1)C(=O)O)c1ccc(I)cc1NS(=O)(=O)c1c(F)cccc1F
2. COC(=O)[C@H](Cc1ccc(Cl)cc1)NC(=O)c1ccc(Cl)cc1NS(=O)(=O)c1ccc(F)cc1F
3. O=C(N[C@H](Cc1cccc(Br)c1)C(=O)O)c1ccc(I)cc1NS(=O)(=O)c1cccc2nsnc12
4. O=C(NCCc1ccc(Br)cc1)c1ccc(Cl)cc1NS(=O)(=O)c1c(F)cccc1F
5. O=C(N[C@@H](Cc1ccc(Cl)cc1)C(=O)O)c1ccc(I)cc1NS(=O)(=O)c1cccc2nccnc12

Resp:
[398, 126, 398, 100, 1260]

Below are 4 compounds. Give each one its Ki.
1. O=C(N[C@H](Cc1ccc(Cl)cc1)C(=O)O)c1cc(Cl)c(Cl)cc1NS(=O)(=O)c1cccc2nsnc12
2. COC(=O)[C@H](Cc1ccc(F)c(Br)c1)NC(=O)c1ccc(Br)cc1NS(=O)(=O)c1cccc2nsnc12
3. CC(CNC(=O)c1ccc(I)cc1NS(=O)(=O)c1c(F)cccc1F)c1ccc(Cl)c(Cl)c1 (stereo not drawn)
4. Cc1ccc(C(=O)NC(CO)Cc2ccc(Cl)cc2)c(NS(=O)(=O)c2cccc3nsnc23)c1 (racemic)

Resp:
1: 12.6; 2: 158; 3: 31.6; 4: 1260

Return reported Ki values for all items listed beneath this line.
1. CC(CNC(=O)c1cc(Cl)c(Cl)cc1NS(=O)(=O)c1cccc2nsnc12)c1ccc(Cl)c(Cl)c1 (racemic)
2. COC(=O)[C@H](Cc1ccc(Cl)c(I)c1)NC(=O)c1ccc(I)cc1NS(=O)(=O)c1cccc2nsnc12
3. COC(=O)[C@H](Cc1ccc(Cl)c(Cl)c1)NC(=O)c1ccc(I)cc1NS(=O)(=O)c1cccc2nsnc12

Resp:
1: 31.6; 2: 39.8; 3: 158
